Items are presented alongside their recorded IC50.
# Tested on: Raw 264.7 macrophages
# assay text: Cytotoxicity, MTT assay
# Assay type: cell-based
# condition context: Raw 264.7, MTT, 48 h
Answer in µg/mL, number only, no unit symbol.

>>> value_reported("Cc1nnc(SCC2=C(C(=O)O)N3C(=O)[C@@H](NC(=O)Cn4cnnn4)[C@H]3SC2)s1")
504.26

# input for lookup
Notebook: C=CC1=C(C(=O)O)N2C(=O)[C@@H](NC(=O)/C(=N\OCC(=O)O)c3csc(N)n3)[C@H]2SC1 , IC50 read as 473.83

###

# System: S. saprophyticus biofilm
# assay text: Biofilm inhibition assay (MBIC, MTT)
# Type: cell-based, Staphylococcus saprophyticus
# condition context: Staphylococcus saprophyticus, 24 h; geometric mean, S. saprophyticus (n = 3)
measured endpoint: minimal effective concentration (µg/mL)
Answer in µg/mL, number only, no unit symbol.

These recorded examples may help you get a feel for the data.
>>> value_reported("O=C(O)c1cc(O)c(O)c(O)c1 [Gallic acid, 3,4,5-trihydroxybenzoic acid]")
427
>>> value_reported("COc1cc(/C=C/C(=O)CC(=O)/C=C/c2ccc(O)c(OC)c2)ccc1O")
107
>>> value_reported("COc1ccc2cc3[n+](cc2c1OC)CCc1cc2c(cc1-3)OCO2")
85.3

# input for lookup
Form field, minimal effective concentration with S. saprophyticus biofilm, item C=CC1=C(C(=O)O)N2C(=O)[C@@H](NC(=O)/C(=N\OCC(=O)O)c3csc(N)n3)[C@H]2SC1 : 48
